# target: Shiga toxin 2 (Escherichia coli O157:H7) (UniProt P09385+P09386)
# assay notes: E. coli 0.157:H7 Shiga Toxin SOP - stx2 screening assay
# Assay type: functional
# Set-up: scale not given: direction of the effect not stated beside the values
# particulars: 30 µM
readout kind: Percent Effect (%)
Numbers only, in %.

Solved entries (count: 10):
Give the value of Percent Effect reported for the following: COC(=O)CNC(=O)CSCc1nc(O)c2cc(C(C)C)sc2n1
-7.38

Give the value of Percent Effect reported for the following: CC(C(N)=O)S(=O)(=O)Cc1cc(Cl)c2c(c1)OCO2 (centres undefined)
26.2

Give the value of Percent Effect reported for the following: Cn1ccc(CN2CCC(COC3CCCC3)CC2)cc1=O
-19.3

Give the value of Percent Effect reported for the following: O=C(NCCN1CCCCC1)c1nc(-c2ccc3cc[nH]c3c2)no1
-77.4

Give the value of Percent Effect reported for the following: Cc1nnc2n1CCN(Cc1csc(Cc3ccccc3)n1)C2
1.17

Give the value of Percent Effect reported for the following: O=C1COC2(CCN(Cc3ccoc3)CC2)CN1c1ccsc1
-18.4

Give the value of Percent Effect reported for the following: O=C(CCCOCc1ccccc1)N1CCCC1c1ccccn1 (centres undefined)
-0.85

Give the value of Percent Effect reported for the following: CN(C)S(=O)(=O)N1C[C@H](Oc2cccnc2)[C@H]2OCCC[C@H]21
-12

Give the value of Percent Effect reported for the following: c1cncc(CN2CC[C@H]3O[C@@H](COCC4CC4)CC[C@H]32)c1
-10.9

Give the value of Percent Effect reported for the following: Cc1nc(CN2C(=O)CC[C@H]3[C@@H]2CCN3C(=O)c2ccsc2)cs1
-2.73

Below is a list of molecules. For each, state its recorded Percent Effect.
1. CC(C)(C)c1cn2nc(N3CCOC(Cn4cncn4)C3)sc2n1 (centres undefined)
2. O=C(NCCCn1cncn1)NCC(c1ccccc1)N1CCCC1 (centres undefined)
3. Cc1cnn(CCNCC(O)COc2c(C)ccc(C)c2C)c1 (centres undefined)
4. O=C(Cc1ccc2c(c1)CCCC2)NCCc1ccccn1
5. COCC1COCCC12CCN(C(=O)CCOc1ccccc1)CC2 (centres undefined)
6. CCO[C@@H]1CO[C@@]2(CCCN(Cc3scnc3C)C2)C1

1: -8.88; 2: -13; 3: -6.89; 4: 29.1; 5: 0.928; 6: -25
